# Experimental Target: Aryl hydrocarbon receptor (Homo sapiens) (UniProt P35869)
# Sequence (P35869 whole entry, looked up): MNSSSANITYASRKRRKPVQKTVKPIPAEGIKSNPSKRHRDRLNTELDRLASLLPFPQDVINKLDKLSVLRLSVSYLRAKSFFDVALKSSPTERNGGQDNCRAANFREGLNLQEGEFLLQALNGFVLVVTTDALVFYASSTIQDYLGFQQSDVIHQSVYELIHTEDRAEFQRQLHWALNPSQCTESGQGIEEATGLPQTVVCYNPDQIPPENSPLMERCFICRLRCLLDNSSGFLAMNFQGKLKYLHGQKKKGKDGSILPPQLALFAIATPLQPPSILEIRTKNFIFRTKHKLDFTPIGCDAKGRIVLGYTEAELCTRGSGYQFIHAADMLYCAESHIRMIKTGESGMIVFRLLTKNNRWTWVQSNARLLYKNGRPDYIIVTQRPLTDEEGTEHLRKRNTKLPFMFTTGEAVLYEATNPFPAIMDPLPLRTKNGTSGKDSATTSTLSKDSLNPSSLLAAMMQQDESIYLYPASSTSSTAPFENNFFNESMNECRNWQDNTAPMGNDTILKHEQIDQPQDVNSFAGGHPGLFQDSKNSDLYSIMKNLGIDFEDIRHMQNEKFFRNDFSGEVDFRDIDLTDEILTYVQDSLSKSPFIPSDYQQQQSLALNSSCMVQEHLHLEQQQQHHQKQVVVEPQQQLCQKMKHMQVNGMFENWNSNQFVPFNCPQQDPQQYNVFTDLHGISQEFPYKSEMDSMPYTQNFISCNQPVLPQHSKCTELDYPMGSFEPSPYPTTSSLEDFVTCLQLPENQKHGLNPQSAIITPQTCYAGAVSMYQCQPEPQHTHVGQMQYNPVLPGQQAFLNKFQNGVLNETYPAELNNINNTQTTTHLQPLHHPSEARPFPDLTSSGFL
# Measurement Description: qHTS assay to identify small molecule that activate the aryl hydrocarbon receptor (AhR) signaling pathway (AID 743085); also: nearly all actives have a fitted effect of over 15% in size;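 as to activation: HG2L7.5c1 human HepG2 liver cells with stably integrated DRE-driven firefly reporter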
# Condition Details: HepG2 AhR-luc (HG2L7.5c1), luciferase, 24 h; series mostly up to 70.3 µM
# Text: U.S. Tox21 Program National Center for Advancing Translational Sciences [NCATS] NIH Chemical Genomics Center [NCGC] U.S. Environmental Protection Agency [EPA] National Institutes of Environmental Health Sciences [NIEHS] National Toxicology Program [NTP] U.S. Food and Drug Administration [FDA] Tox21 Assay overview: The Aryl hydrocarbon Receptor (AhR), a member of the family of basic helix-loop-helix transcription factors, is crucial to adaptive responses to environmental changes. […]
Results filed as inconclusive are left out. Calls of active or inactive are those of the source. Calls follow the shape of the dose curve; as a rule, active = well fitted activation curve with a large enough effect in the repeat runs; inconclusive = weak or mixed curves; inactive = no such curve, though single readings can be large or run the other way. Positions of bridges follow the written chain, without caps; N, C: chain ends. Non-standard residues stand in square brackets, D forms with d. Residues, ends and D or L forms follow the SMILES beside them. ξ: configuration not given here. *: point of attachment. d(aThr) = C[C@@H](O)[C@@H](N)C(=O)O; ξThr(3R) = C[C@@H](O)C(N)C(=O)O; X3 = CC[C@@H](C)CCCCC(=O)*; dDab = NCC[C@@H](N)C(=O)O
Select the correct class. Options are TRUE for active, FALSE for inactive and nothing else.

What call does the record list for CC(C)[C@@H](C)/C=C/[C@@H](C)[C@H]1CC[C@H]2/C(=C/C=C3\C[C@@H](O)CC[C@@H]3C)CCC[C@]12C ? FALSE

Which result was noted for this compound in the test: CC(=O)N(CC(C)C(=O)O)c1c(I)cc(I)c(N)c1I (centres undefined) FALSE

Which result was noted for this compound in the test: CC(CC(c1ccccc1)c1ccccc1)NC(C)(C)C (centres undefined) FALSE

What did this assay record as the result for COc1ccc(CC2c3cc(OC)c(OC)cc3CC[N+]2(C)CCC(=O)OCCCCCOC(=O)CC[N+]2(C)CCc3cc(OC)c(OC)cc3C2Cc2ccc(OC)c(OC)c2)cc1OC (centres undefined) ? FALSE

Outcome? CC[C@@H](C)CCCCC(=O)N[C@H](CCN)C(=O)N[C@@H](C(=O)N[C@H](CCN)C(=O)N[C@@H]1CCNC(=O)C([C@@H](C)O)NC(=O)[C@@H](CCN)NC(=O)[C@@H](CCN)NC(=O)[C@@H](CC(C)C)NC(=O)[C@@H](Cc2ccccc2)NC(=O)[C@@H](CCN)NC1=O)[C@@H](C)O (stereo partly drawn) (X3-[dDab][d(aThr)][dDab][dDab][dDab][dF][dL][dDab][dDab][ξThr(3R)]; lactam 4-C) FALSE

What is the recorded call for this compound in the test? CC(=O)O[C@H]1CC[C@@]2(C)C(=CC[C@H]3[C@@H]4CC[C@H](C(C)=O)[C@@]4(C)CC[C@@H]32)C1 FALSE

Which result was noted for this compound in the test: NC(=O)OCC(O)COc1ccc(Cl)cc1 (centres undefined) FALSE

Query: recorded result category for CC(CN(C)C)CN1c2ccccc2Sc2ccc(C(F)(F)F)cc21 (centres undefined) in this test FALSE

Recorded test call requested for CCCCCCCCCCCCCCCC(=O)OCC(COC(=O)CCCCCCCCCCCCCCC)OC(=O)CCCCCCCCCCCCCCC FALSE

Could you kindly confirm the outcome this assay logged for CCCN(CC)C(CC)C(=O)Nc1c(C)cccc1C (centres undefined) ? FALSE

Please indicate how the test categorized CC1(C)S[C@@H]2[C@H](NC(=O)[C@H](NC(=O)N3CCN(S(C)(=O)=O)C3=O)c3ccccc3)C(=O)N2[C@H]1C(=O)O . FALSE

Record lookup: outcome of this test for CCC(C)(C)OC(=O)N[C@@H](Cc1c[nH]c2ccccc12)C(=O)N[C@@H](CCSC)C(=O)N[C@@H](CC(=O)O)C(=O)N[C@@H](Cc1ccccc1)C(N)=O ? FALSE

Field: outcome | Entry: CN[C@@H]1[C@@H](O)[C@@H](O[C@@H]2[C@@H](O)[C@H](O[C@H]3O[C@H](CN)[C@@H](O)[C@H](O)[C@H]3O)[C@@H](N)C[C@H]2NC(=O)C(O)CN)OC[C@]1(C)O (some centres undefined) FALSE

What is the recorded call for this compound in the test? CCC(=O)NCCC1CCc2ccc3c(c21)CCO3 (centres undefined) FALSE

What did this assay record as the result for CCCCCCOc1ccc(C(=N)N(CCCC)CCCC)c2ccccc12 ? FALSE

Lab log entry: C[C@H]1C[C@H]2[C@@H]3CCC4=CC(=O)C=C[C@]4(C)[C@@]3(F)[C@@H](O)C[C@]2(C)[C@@]1(O)C(=O)CCl — outcome as called in the assay? TRUE

Field: outcome | Entry: OCCN1CCN(CC/C=C2/c3ccccc3Sc3ccc(Cl)cc32)CC1 FALSE

Which outcome did this test record for the compound C[C@H](N)C(=O)N[C@@H](C)P(=O)(O)O ? FALSE

Please share the test call associated with Cc1cccc(C)c1N(CCCc1cccnc1)C(=O)C(C)N (centres undefined) . FALSE

Please state the recorded outcome for this compound: O=C(O)CN(CC(=O)O)CC1=CC2C(=CC1=O)Oc1cc(O)c(CN(CC(=O)O)CC(=O)O)cc1C21OC(=O)c2ccccc21 (centres undefined) FALSE

Short answer needed: outcome of this test for NCCCC[C@H](NC(=O)[C@@H]1CCCN1C(=O)[C@@H]1CSSC[C@H](NC(=O)CNC(=O)CNC(=O)CN)C(=O)N[C@@H](Cc2ccc(O)cc2)C(=O)N[C@@H](Cc2ccccc2)C(=O)N[C@@H](CCC(N)=O)C(=O)N[C@@H](CC(N)=O)C(=O)N1)C(=O)NCC(N)=O (H-GGGCYFQNCPKG-NH2; disulfide 4-9) ? FALSE

Hey, what did the test say about CC(C)(C)C1(O)CCN2CC3c4ccccc4CCc4cccc(c43)C2C1 (centres undefined) ? FALSE

What did this assay record as the result for CC(C)(C)CC(C)(C)c1cc(Cc2cc(C(C)(C)CC(C)(C)C)cc(-n3nc4ccccc4n3)c2O)c(O)c(-n2nc3ccccc3n2)c1 ? FALSE

Answer briefly: the call reported for C=CCNC1=C2C[C@@H](C)C[C@H](OC)[C@H](O)[C@@H](C)/C=C(\C)[C@H](OC(N)=O)[C@@H](OC)/C=C\C=C(/C)C(=O)NC(=CC1=O)C2=O in this assay. FALSE
